experiment: chemical genetic growth profiling, strain panel (AID 1159580);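 note: tested at 20 µM; growth read once vehicle control cultures reached saturation at 30 °C; lower values mean less growth of the strain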; settings: S. cerevisiae deletion strains, growth OD, locus YPL240C, strain hsp82
The campaign covered roughly 5,500 compounds. About 2,000 (36%) were called active. Inconclusive results (about 18%) are left out. Cut-off read from the data, not from the text of the source: active = normalized growth mostly below about 0.91 (no sharp cut-off); inconclusive = no clear call, values can overlap the other calls; inactive = mostly above about 0.92. The list shows a part of the results. *1 amine or outer side, *2 acyl side, *3 side chain or, on linkers, in order; H or OH if unused. Where a SMILES comes first, the peptide text is derived from it. Bridges are numbered along the chain shown (N, C = ends). [ ]: non-standard residue; d: D form. The star is where a group is joined. ξ: configuration not given here. ΔAla(E,3-NHCONH2) = NC(=O)N/C=C(/N)C(=O)O; X2 = NC1=NCCC(C(N[*:1])C(=O)[*:2])N1; ξβ3hOrn = NCCCC(N)CC(=O)*; Orn = NCCC[CH](N)C(=O)O; Dap = NC[CH](N)C(=O)O
Classes used: active, inactive

| compound | answer label |
| --- | --- |
| O=C(CCc1ccc(O)cc1)c1c(O)cc(O)cc1O[C@@H]1O[C@H](CO)[C@@H](O)[C@H](O)[C@H]1O | inactive |
| CC(=O)NS(=O)(=O)c1ccc(NC(=O)c2ccccc2C(=O)O)cc1 | inactive |
| CC(=O)OCC(=O)[C@@]1(O)CCC2C3CCC4=CC(=O)CC[C@]4(C)C3[C@@H](O)C[C@@]21C (stereo partly specified) | inactive |
| COc1ccc(C2C(=O)c3ccccc3C2=O)cc1 | inactive |
| CC(=O)[O][Hg][c]1ccccc1 | active |
| C=C(C)[C@H]1Cc2c(ccc3c2O[C@@H]2COc4cc(OC)c(OC)cc4[C@@H]2C3=O)O1 | inactive |
| Cc1ccc(N(CC2=NCCN2)c2cccc(O)c2)cc1 | inactive |
| CO[C@H]1C[C@H](O[C@H]2[C@H](C)[C@@H](OC3O[C@H](C)C[C@H](N(C)C)[C@H]3OC(C)=O)[C@@H](C)C[C@]3(CO3)C(=O)[C@H](C)[C@@H](OC(C)=O)[C@@H](C)[C@@H](C)OC(=O)[C@@H]2C)O[C@@H](C)[C@@H]1OC(C)=O (stereo partly specified) | inactive |
| CC(=O)Oc1ccccc1C(=O)O | inactive |
| CC1=NN(c2ccccc2)C(=O)C1 | inactive |
| NC(=O)N1c2ccccc2C=Cc2ccccc21 | inactive |
| COc1cc(O)cc(OC)c1OC | inactive |
| COc1c2ccoc2cc2oc(C)cc(=O)c12 | inactive |
| COc1c2occc2c(OC)c2c(=O)cc(C)oc12 | inactive |
| COc1cnc(NS(=O)(=O)c2ccc(N)cc2)nc1 | inactive |
| COc1ccc(C(=O)c2ccc(O)cc2)c(O)c1O | inactive |
| C1CCC(C(CC2CCCCN2)C2CCCCC2)CC1 (stereo unspecified) | inactive |
| COc1cc(NS(=O)(=O)c2ccc(N)cc2)ncn1 | inactive |
| CC(NCCC(c1ccccc1)c1ccccc1)c1ccccc1 (stereo unspecified) | inactive |
| O=C1c2ccccc2C(=O)C1c1ccccc1 | inactive |
| NC(N)=NC(N)=Nc1ccccc1 | inactive |
| CCCCCCCCCCCCCCCCCCOCC(O)CO (stereo unspecified) | inactive |
| CC(C)CC1NC(=O)C(CCCN)NC(=O)C(C(C)C)NC(=O)C2CCCN2C(=O)C(Cc2ccccc2)NC(=O)C(CC(C)C)NC(=O)C(CCCN)NC(=O)C(C(C)C)NC(=O)C2CCCN2C(=O)C(Cc2ccccc2)NC1=O (stereo unspecified) (cyclo(FPV[Orn]LFPV[Orn]L); configuration not given here) | inactive |
| NC(=O)NO | inactive |
| CCOc1ccc(C(=O)c2cc(O)c(OC)c(OC)c2O)cc1 | inactive |
| NCCCC(N)CC(=O)NCC1NC(=O)C(CO)NC(=O)C(N)CNC(=O)C(C2CCN=C(N)N2)NC(=O)/C(=C\NC(N)=O)NC1=O (stereo not drawn) (H-[Dap]S[Dap](ξβ3hOrn)[ΔAla(E,3-NHCONH2)][X2]; lactam 1-C; configuration not given here) | inactive |
| CC[C@@H](CO)NC(=O)[C@@H]1C=C2c3cccc4[nH]cc(c34)C[C@H]2N(C)C1 | inactive |
| CCCc1nc2c(C)cc(-c3nc4ccccc4n3C)cc2n1Cc1ccc(-c2ccccc2C(=O)O)cc1 | inactive |
| COc1cc2cc3c4cc(OC)c(OC)cc4cc[n+]3c(C)c2cc1OC | inactive |
| Cc1c(NC(=O)c2cccnc2)c(=O)n(-c2ccccc2)n1C | inactive |
| O=C(O)[C@H](O)[C@@](O)(Cc1ccc(O)cc1)C(=O)O | inactive |
| COc1ccc(-c2oc3ccccc3c(=O)c2O)cc1OC | active |
| C=C(C)[C@@H]1CC[C@]2(CO)CC[C@]3(C)[C@H](CCC4[C@@]5(C)CC[C@H](O)C(C)(C)C5CC[C@]43C)C12 (stereo partly specified) | inactive |
| O=c1oc2c(O)c(O)cc3c(=O)oc4c(O)c(O)cc1c4c23 | active |
| COc1cc2c(cc1OC)[C@@H]1C(=O)c3ccc4c(c3O[C@@H]1CO2)CC(C(C)C)O4 (stereo partly specified) | inactive |
| CN(C)CCc1c[nH]c2ccc(CS(=O)(=O)N3CCCC3)cc12 | inactive |
| CNCC[C@@H](Oc1ccccc1)c1ccccc1 | inactive |
| CNS(=O)(=O)Cc1ccc2[nH]cc(CCN(C)C)c2c1 | inactive |
| CCCCc1nc(Cl)c(CO)n1Cc1ccc(-c2ccccc2-c2nn[nH]n2)cc1 | inactive |
| CCNc1nc(Cl)nc(NCC)n1 | inactive |
| COc1cc(/C=C/C(=O)N2CCC=CC2=O)cc(OC)c1OC | inactive |

Reference source for all entries: PubChem BioAssay AID1159580
